system: Mycobacterium tuberculosis; assay: Cornell M. t heat shock assay; format: functional, organism-based; parameters: dose or concentration left out as unconfirmed; further: in the data most compounds retested in dose-response had high values
Among all 69,000 compounds or so, about 950 (1.4%) showed an effect of 50% or more. The full list was thinned out, with strong results kept by preference.
quantity: Percent Effect (%)
Numeric only. Scale: %

Look up Percent Effect of Cn1cc(CNC2CCCOc3c(Cl)cccc32)cn1 (stereo unspecified) and report it. 12.93

***
Look up Percent Effect of Cc1ccc2c(c1)OCCCC2NCc1nccn1CC(C)C (stereo unspecified) and report it. 101.9

Look up Percent Effect of Cc1cccc2c1OCCCC2NCc1nnc2n1CCCCC2 (stereo unspecified) and report it. -4.885

====

tested on: Mycobacterium tuberculosis; assay: Cornell M. t heat shock assay; type: functional, organism-based; design: dose or concentration left out as unconfirmed; further: in the data most compounds retested in dose-response had high values
Screen size: about 69,000 compounds; about 950 (1.4%) showed an effect of 50% or more. What follows is part of a selection rich in strong results, with near analogues and random picks from the rest.
quantity: Percent Effect

Look up Percent Effect of Cc1nc(N2CCOCC2)nc2c1CCN(Cc1nccn1C)CC2.O=C(O)C(F)(F)F and report it. -4.986%

Look up Percent Effect of CN1CCN(C)C2(CCN(Cc3ccsc3)CC2)C1=O.O=C(O)C(F)(F)F and report it. -19.83%

Look up Percent Effect of O=C(CCNc1ncc2c(n1)CCN2c1ccccc1)N1CCCC1 and report it. 58.85%

Look up Percent Effect of CCc1c(C)nc(-n2nc(-c3cccs3)cc2N)[nH]c1=O and report it. 106.4%

Look up Percent Effect of O=C(c1ccon1)N1CCc2ncnc(NCc3cccnc3)c2CC1 and report it. 1.572%

***
Look up Percent Effect of CN1CCN(Cn2nc(-c3cccs3)ccc2=O)CC1 and report it. 6.699%

Look up Percent Effect of CC(c1cccc(F)c1)N1CCN(Cc2nccn2C)CC1 (stereo not drawn) and report it. -12.42%

Look up Percent Effect of O=C(c1ccoc1)N1CCc2ncnc(NCc3ccccn3)c2CC1 and report it. 62.71%

Look up Percent Effect of CC(C)c1cc(CN2CCC(CC(=O)O)CC2)no1 and report it. 6.455%

Look up Percent Effect of O=C(c1cc[nH]n1)N1CCc2ncnc(NCc3ccccn3)c2CC1 and report it. -1.441%

Look up Percent Effect of Cc1ccc(CNC(c2ccc(F)cc2)c2nccn2C)o1 (stereo not drawn) and report it. 74.11%

====

test system: Mycobacterium tuberculosis; assay: Cornell M. t heat shock assay; type: functional, organism-based; design: dose or concentration left out as unconfirmed; further: in the data most compounds retested in dose-response had high values
Hit rate of the full screen: of about 69,000 compounds, about 950 (1.4%) showed an effect of 50% or more. Only a selection was taken, and strong results are over-represented in it overall.
Rule: Percent Effect of 40% or more gives 1; anything lower gives -1.

Confirm if Percent Effect reported for the compound Cc1ccc(OCCN(C)C(C)c2cccc(S(N)(=O)=O)c2)cc1 (configuration not stated) is 40% or above. -1

Confirm if Percent Effect reported for the compound CC(c1cc(F)ccc1F)N(C)CCS(=O)(=O)CCC(N)=O (configuration not stated) is 40% or above. 1

====

test system: Mycobacterium tuberculosis; experiment: Cornell M. t heat shock assay; format: functional, organism-based; design: dose or concentration left out as unconfirmed; further: in the data most compounds retested in dose-response had high values
Out of some 69,000 compounds screened, about 950 (1.4%) showed an effect of 50% or more. The sample as a whole holds a higher share of strong results than the screen did.
A collection of molecules and their measured Percent Effect
Numeric only. Scale: %

Record excerpt, results attached:
Look up Percent Effect of COc1coc(CN2CCCC(CCc3ccc(F)cc3)C2)cc1=O (stereo not drawn) and report it. -2.405

Look up Percent Effect of CNC(=O)CN1CC[C@H]2CN(C(=O)c3ccccc3F)C[C@H]2C1.O=C(O)C(F)(F)F and report it. -22.98

Look up Percent Effect of Cc1ccc(CN[C@@H]2COC[C@H]2c2ccc(F)cc2)cc1C.O=C(O)CC(O)(CC(=O)O)C(=O)O and report it. -6.111

Look up Percent Effect of O=C(C1CC=CC1)N1CCC2(CCN(Cc3ccccn3)C2=O)C1.O=C(O)C(F)(F)F (stereo not drawn) and report it. -18.77

Look up Percent Effect of CN(C)[C@H]1CCN(c2ccnc(C(=O)NCc3ccco3)c2)C1 and report it. 19.62

***
Look up Percent Effect of Cc1cc(NCc2ccc(CO)cc2)n2nc(C)cc2n1 and report it. 10.67

Look up Percent Effect of Cc1nc(CN2C(=O)CCC23CCN(Cc2cccn2C)CC3)cs1.O=C(O)C(F)(F)F.O=C(O)C(F)(F)F and report it. -21.2

Look up Percent Effect of C[C@@H]1CN(Cc2ccoc2)C[C@]12CCN(CC(=O)N(C)C)C2=O.O=C(O)C(F)(F)F and report it. 10.48
